system-name: T1, human GLP-1 receptor (human, UniProt P43220 24-463)
T1 construct: whole, on cells; Used as purified plasma membranes of the stably transfected BHK cell line, not as intact cells; also called hGLP-1
assay-comment: SPA, displacement of 125I-GLP-1(7-36)NH2 from hGLP-1R BHK membranes, high HSA (2.0%)
Description: A shift in the binding affinity, $IC50$, is an indication that the peptide in question binds to albumin, and thereby a prediction of a potential protracted pharmacokinetic profile of the peptide in question in animal models. 50 ul (micro liter) HSA ("high albumin" experiment containing 2% HSA), or buffer ("low albumin" experiment containing 0.001% HSA), was added to Optiplate, and 25 ul of test compounds were added. […] The plates were centrifuged (1500 rpm, 10 min) and counted in Topcounter.
Numbered stars: 1 amine (or outer) side, 2 acyl side, 3 side chain; on linkers, the order of the positions; unused ones are H or OH. Side chains are listed from the residue outwards. Ends that are not written are not given here. * marks the point of attachment. Dodecanoyl(12-OPh(4-COOH)) = O=C(O)c1ccc(OCCCCCCCCCCCC(=O)*)cc1; Decanoyl(10-(4-HOOC-PhO)) = O=C(O)c1ccc(OCCCCCCCCCC(=O)*)cc1; γGlu = O=C(O)[C@H](CCC(=O)[*:2])N[*:1]; C14 diacid = O=C(O)CCCCCCCCCCCCC(=O)*; AEEA = NCCOCCOCC(=O)O
property-measured: pIC50
In plain terms, pIC50 is the concentration in mol/L turned into minus its base-10 logarithm.

binder	pIC50
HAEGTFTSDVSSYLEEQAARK([AEEA-AEEA-γGlu-Dodecanoyl(12-OPh(4-COOH))])FIEWLVRGK([AEEA-AEEA-γGlu-Dodecanoyl(12-OPh(4-COOH))])GEG (also called 32)	6.43
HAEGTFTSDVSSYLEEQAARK([AEEA-AEEA-γGlu-Decanoyl(10-(4-HOOC-PhO))])FIAWLVRGK([AEEA-AEEA-γGlu-Decanoyl(10-(4-HOOC-PhO))]) (ends and bridges not checked)	7.54
HAEGTFTSDVSSYLEEQK([AEEA-AEEA-γGlu-C14 diacid])VRK([AEEA-AEEA-γGlu-C14 diacid])FIAHLVRGRG (also called 24)	7.30

Next, consider the following binder.
For record HAEGTFTSDVSSYLEEQK([AEEA-AEEA-γGlu-Decanoyl(10-(4-HOOC-PhO))])ARK([AEEA-AEEA-γGlu-Decanoyl(10-(4-HOOC-PhO))])FIAHLVG (also called 25) the listed pIC50 is 7.41
